So I've got Ki readings for Glutamate receptor ionotropic, NMDA 1 (Rattus norvegicus, UniProt P35439), take a look.

Looking up `O=C(O)CCc1c(C(=O)O)nc2cc(Cl)cc(Cl)c2c1O` , I see its Ki listed as 7.04 µM

Looking up `O=C(O)Cc1cc2ccccc2nc1C(=O)O` , I see its Ki listed as > 100 µM

Looking up `O=C(O)CCc1c(C(=O)O)[nH]c2cc(Cl)cc(Cl)c12` , I see its Ki listed as 0.14 µM

The origin of these recorded values is ChEMBL document CHEMBL1127100.
